Could you please report measured GI50 for the items listed next?
tested on: HCT-15 colon; experiment: NCI tumour cell line growth inhibition, 48 h

The compound CC1=C(C(=O)Nc2ccc(F)c(Cl)c2)C(c2ccccc2Cl)NC(=S)N1 (stereo not given) on HCT-15 colon: GI50 was 16.2 µM

The compound COc1cc(-c2nc(Nc3nc4ccccc4[nH]3)nc(N)c2C#N)cc(OC)c1OC on HCT-15 colon: GI50 was 18.1 µM

The compound C1=Cc2ccccc2Nc2ccccc21 on HCT-15 colon: GI50 was > 100 µM

The compound O=C(CN1CCN(c2ncnc3ccccc23)CC1)Nc1ccc(Cl)cc1C(=O)c1ccccc1Cl on HCT-15 colon: GI50 was 3.12 µM

The compound CCCN(CCC)C(=O)C1=Cc2ccc(-c3ccc(C(=O)N4CCCC4)cc3)cc2N=C(N)C1 on HCT-15 colon: GI50 was 4.8 µM

The compound Cn1ccnc1C(=O)/C=C/c1ccc(C(=O)Nc2ccc(Cl)cc2)cc1 on HCT-15 colon: GI50 was 0.676 µM

The compound Cn1cncc1[C@@](N)(c1ccc(Cl)cc1)c1ccc2c(c1)c(-c1cccc(Cl)c1)cc(=O)n2C on HCT-15 colon: GI50 was 2.08 µM

The compound COc1cc(NS(C)(=O)=O)ccc1Nc1c2ccc(Cl)cc2nc2c(OC)cccc12 on HCT-15 colon: GI50 was 0.226 µM

The compound N#C/C(=C\c1ccc(-c2ccc(Cl)cc2)o1)C(=O)Nc1ncc(Cc2ccc(Cl)cc2)s1 on HCT-15 colon: GI50 was 2.3 µM

The compound CCOc1c(Br)cc(C2C(C(=O)OC)=CN(C)C=C2C(=O)OC)cc1OC on HCT-15 colon: GI50 was 33.9 µM
